Attribution: paper PMC12621043

Target: CSNK1EA (Homo sapiens, UniProt P49674)
Construct: purchased in-house DSF kinase panel (SGC-style construct names; the trailing letter is the construct ID)
Sequence (P49674 1-294): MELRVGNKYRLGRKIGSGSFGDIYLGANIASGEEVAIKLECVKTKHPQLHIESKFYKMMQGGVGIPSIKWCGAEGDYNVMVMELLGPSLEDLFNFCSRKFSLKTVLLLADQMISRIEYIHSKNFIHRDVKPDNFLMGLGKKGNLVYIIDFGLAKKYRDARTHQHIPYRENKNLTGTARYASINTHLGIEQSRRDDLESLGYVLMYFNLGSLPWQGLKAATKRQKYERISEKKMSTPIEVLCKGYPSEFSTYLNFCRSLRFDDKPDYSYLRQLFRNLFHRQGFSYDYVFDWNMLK
Experiment: DSF Tm panel
Type: binding
Details: 10 μM compound
Procedure: The synthesized urea-based derivatives were evaluated in a panel of kinases by differential scanning fluorescence (DSF) to investigate their selectivity profile. […] This was also reflected in the overall low selectivity score (S) throughout the series, which is determined by the ratio between the number of kinases that are stabilized above 5 °C and the total number of kinases tested (Figure ). […]
Endpoint Name: ΔTm at 10 µM (°C)

Solved cases (4 shown):
Give the measured ΔTm at 10 µM of `COc1ccc(CNC(=O)Nc2ccc3cc2OCCOCCNc2ccn4ncc-3c4n2)cc1F` .
0.3

Give the measured ΔTm at 10 µM of `COc1ccccc1CNC(=O)Nc1ccc2cc1OCCOCCNc1ccn3ncc-2c3n1` .
0.7

Give the measured ΔTm at 10 µM of `O=C(NCc1ccccc1C(F)(F)F)Nc1ccc2cc1OCCOCCNc1ccn3ncc-2c3n1` .
0

Give the measured ΔTm at 10 µM of `Cc1cc(Br)ccc1CNC(=O)Nc1ccc2cc1OCCOCCNc1ccn3ncc-2c3n1` .
0.7

(1) COc1ccc(CNC(=O)Nc2ccc3cc2OCCOCCNc2ccn4ncc-3c4n2)cc1
(2) O=C(NCc1ccc(C(F)(F)F)cc1)Nc1ccc2cc1OCCOCCNc1ccn3ncc-2c3n1
Lab note: record which item had the higher ΔTm at 10 µM, 1 or 2 . Respond with the label that goes with your answer.
1

---

Biological target: STK3 (STK3A) (Homo sapiens)
Construct: purchased in-house DSF kinase panel (SGC-style construct names; the trailing letter is the construct ID)
Sequence (Q13188 16-313): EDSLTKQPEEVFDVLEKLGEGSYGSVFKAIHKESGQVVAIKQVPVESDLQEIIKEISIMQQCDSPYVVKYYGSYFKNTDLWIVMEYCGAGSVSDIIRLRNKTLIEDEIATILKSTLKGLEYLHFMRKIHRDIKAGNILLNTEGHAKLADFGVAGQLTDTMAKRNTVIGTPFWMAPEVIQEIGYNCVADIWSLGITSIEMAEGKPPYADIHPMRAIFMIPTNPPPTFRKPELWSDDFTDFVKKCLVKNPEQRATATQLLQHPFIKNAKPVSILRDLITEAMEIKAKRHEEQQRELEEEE
Assay: DSF Tm panel
Format: binding
Details: 10 μM compound
Endpoint Name: ΔTm at 10 µM (°C)

Solved cases (8 shown):
Give the measured ΔTm at 10 µM of `COc1cccc(CNC(=O)Nc2ccc3cc2OCCOCCNc2ccn4ncc-3c4n2)c1` .
3.7

Give the measured ΔTm at 10 µM of `O=C(NCc1ccc(C(F)(F)F)cc1)Nc1ccc2cc1OCCOCCNc1ccn3ncc-2c3n1` .
5.1

Give the measured ΔTm at 10 µM of `CN1CCN(C(=O)Nc2ccc3cc2OCCOCCNc2ccn4ncc-3c4n2)CC1` .
3.3

Give the measured ΔTm at 10 µM of `COc1ccc(CNC(=O)Nc2ccc3cc2OCCOCCNc2ccn4ncc-3c4n2)cc1F` .
4.7

Give the measured ΔTm at 10 µM of `O=C(NCc1cccc(Cl)c1)Nc1ccc2cc1OCCOCCNc1ccn3ncc-2c3n1` .
8

Give the measured ΔTm at 10 µM of `O=C(NCc1ccc(Cl)cc1)Nc1ccc2cc1OCCOCCNc1ccn3ncc-2c3n1` .
6.7

Give the measured ΔTm at 10 µM of `Cc1cc(Br)ccc1CNC(=O)Nc1ccc2cc1OCCOCCNc1ccn3ncc-2c3n1` .
3.8

Give the measured ΔTm at 10 µM of `COc1ccccc1CNC(=O)Nc1ccc2cc1OCCOCCNc1ccn3ncc-2c3n1` .
3.4

(1) O=C(NCc1ccc(Cl)cc1Cl)Nc1ccc2cc1OCCOCCNc1ccn3ncc-2c3n1
(2) COc1cc(CNC(=O)Nc2ccc3cc2OCCOCCNc2ccn4ncc-3c4n2)ccc1F
Lower value for measured ΔTm at 10 µM? Options: 1 , 2 Respond with the label that goes with your answer.
2

(I) O=C(NCc1ccc(Cl)cc1F)Nc1ccc2cc1OCCOCCNc1ccn3ncc-2c3n1
(II) C[C@H](NC(=O)Nc1ccc2cc1OCCOCCNc1ccn3ncc-2c3n1)c1ccccc1
Lab note: record which item had the higher ΔTm at 10 µM, I or II . Respond with the label that goes with your answer.
I
(I: 6.9 °C, II: 3.6 °C)

(I) Cc1cc(Cl)ccc1CNC(=O)Nc1ccc2cc1OCCOCCNc1ccn3ncc-2c3n1
(II) Cc1ccc(F)cc1CNC(=O)Nc1ccc2cc1OCCOCCNc1ccn3ncc-2c3n1
(III) O=C(NCc1ccccc1Cl)Nc1ccc2cc1OCCOCCNc1ccn3ncc-2c3n1
Order by ΔTm at 10 µM, ascending. Quick reminder: the answer is the labels in the order asked.
II, III, I
